PROTOCOL SUMMARY: label from the status in PepcDB records

MACROMOLECULE SEQUENCE: MHTQEALFVRLALDAWNTQSSRTDKLIQSLSNEALAVETAPGRNSGTYLLGHLTAVHDAMLPLLELGDTLYPQLAPVFIQNPDKSGLEKPEINDLRLYWSLVQERLANQFNQLQPADWFNKHAAISREDFLKEPHRNKLSVLINRTNHMAYHLGQLAYLKK
protein production: not failed

MACROMOLECULE SEQUENCE: MTLSKQLKTYITERFKLNYQDTWSCETVDAVAEDVLPEKYIKNSPLEHKILNTFTYYNDELHEISIYPFLCYLDKELIAIGYLDNFDLDFIFLNDTHQIIIDERYLLQKGGELEHHHHHH
protein production: failed

MACROMOLECULE SEQUENCE: MMPNRNTNMLLAYKRLPNWTANSIPETLLNPHNTKVGTWEQLTVLSGKLDVYFFDKDDHVLEKLTFDKDSQMPFIQPQVCYKIEPASNDLECHLTLYCQKGDYFNKKYGMTKTHSEVLFSAPYLKENSKILDLGSGQGRNSLYLTMLGHDVTSVDTNEQSLIHLKNIANEENLPSKINWYDINTANLQETYDFILSTVVFMFLNRPVVPDIIKDMQKHTAIGGYNLIVCAMDTKSYPCPIPFPFTFKKGELKDYYKEWYLIKYNEDLGQLHKTDANGNRLQMQFATLLAKKVK
protein production: failed

MACROMOLECULE SEQUENCE: MSDAFTDVAKMKKIKEEIKAHEGQVVEMTLENGRKRQKNRLGKLIEVYPSLFIVEFGDVEGDKQVNVYVESFTYSDILTEKNLIHYLD
protein production: not failed

---

PROTOCOL SUMMARY: label from the status in PepcDB records
MEASUREMENT NAME: protein production

// known answers, use as guide
MACROMOLECULE SEQUENCE: MRGANERKTERARGLRQSDNDAEALLWSELRDRRLNGFKFVRQVAVGPYFADFACRDERLVVEVDGSQHQIGSGDARRDKFMVMNGWSVLRFWNTDIFNDRAAVLETIVAVLEKRLVREVRSADLTFIPGEKKR
protein production: not failed

MACROMOLECULE SEQUENCE: MTKGSLSGLPRENIELPDGSVLRRRSLVSDDAFIDAVTADVGHLGEWLRWARHPPTREETERFRAEQDADWDAGRSFVYVLTPPDRHDQVLGGGAMFPNGEVGVLEIGYWVCSPATGRGLATRAAAALTEEGLGLPGVKAMEIHCDRANARSAAIPPRIGYRLLRIEADEPQTVAEAGRSMVWRHDGA
protein production: failed

MACROMOLECULE SEQUENCE: MSTPDNRSVNFFSLFRRGQHYAKTWPMEKRLAPVFVENRVIRMTRYAIRFMPPVAVFTLCWQIALGGQLGPAVATALFALSLPMQGLWWLGKRSVTPLPPSILNWFYEVRGKLQEAGQALAPVEGKPDYQALADTLKRAFKQLDKTFLDDL
protein production: not failed

MACROMOLECULE SEQUENCE: MSFKNFKCVPKMIFGRGSFVQLDTVLEQERTDANDFVVFLVDDVHQHKPLAARVPNKAHDLVIYVNVDDEPTTVQVDELTAQVKAFNTKLPVSVVGLGGGSTMDLAKAVSLMLTNPGSSSEYQGWDLIKNPAVHHIGIPTVSGTGAEASRTAVLCGPVRKLGLNSDYTVFDQIIMDSELIAGVPTDQWFYTGMDCFIHCVESLQGTYLNEFAKAFAEKSMDLCREVYLDDHPEKDDKLMMASYMGGMSIAYSQVGACHAVSYGLGYVLGYHHGIGNCLAFDVLEEFYPEGVAEFRKMMEIHNITLPKNICKDLPDETIAKMVAVTKSMGPLWDNVYGKGWEEKVTDEMLTKLFRRI
protein production: not failed

MACROMOLECULE SEQUENCE: VFEQELENGLRLFIIPKPGFQKTFVTYTTQFGSLDNQFKPLGQDQFVTVPDGVAHFLEHKLFEKEEEDLFTAFAEDNAQANAFTSFDRTSYLFSATDNIENNIKRLLTMVETPYFTKETVDKEKGIIAEEIKMYQEQPGYKLMFNTLRAMYQRHPIRVDIAGSVESIYDITKDDLYLCYETFYHPSNMVLFVVGDVNPEEICRIVKQH
protein production: failed

MACROMOLECULE SEQUENCE: MKASFKGKFDVDKSGSVASLTFNAGNAKLRATMTDASFVAGPSFNGLSLAVEKPGFFIIDYNVPKKDVRFQFMNTIRIAEKPLNLTYIHMRGDNRTIVDGSFVIDPANKLSANYMVGTKNCKLKYTYVHGGIATFEPCYDVAKNMWDFAISHKLYGGDNLKATYQTSSKMLGLEWSNNSKSTGSFKVCASMNLAEELKPPKLTAETTWNLEL
protein production: not failed

[ask] Need protein production, item `MLRNTSHSYGGIARALHWLCALAVIAALVFIELKGNFPKGDPLRSGLGYAHVQAGLIVLLLVLPRLAWRLGNPPPAIEPAPSPAMNLLAHAGHWALYALMLALPILGIAFIQANGREVALFGLALPAFMPNDPPLGKELKEIHELLGNVLLWLSILHAAAAVWHHRFLKDDTLTRLTGPMR`
[reply] failed

[ask] For `MSILDTLKTPVIVAPMAGGPSTPALVNAAAEAGSLGFLAGGVMPLEQLKQELSEVKGVFGVNLFRPQTDAPKPSDIDELAGLLSSAFRQFGLDEPTVPTPDLSNGWEAKFEAVLAAKPAVFSCTFGIFSAEEFARIKATGIEAWVTVTNPEDALAAQKAGANALVVQGPEAGGHRSTWSIEVEPDERDLKTLLAAVKQAGVYLPLIAAGGLSTSADVAAILEAGASAASCGSAFLLSDEAGTSSLNREILDAAPALGLESVSSRAFSGRYARGVETRFTRSNEGLPPLYPYLNPMITSLRKVAGSAGNWDYAYCLVGVGLESIAKGSAKQILESLTPSALG` then?
[reply] failed

[ask] Can you check `MNSKAMQALIFLGFLATSCLAQAPAPAPTTVTPPPTALPPVTAETPSPIASPPVPVNEPTPAPTTSPTTSPVASPPQTDAPAPGPSAGLTPTSSPAPGPDGAADAPSAAWANKAFLVGTAVAGALYAVVLA` next?
[reply] failed

[ask] Same read-out for `MSLGKRMGAELIGTFWLVLGGCGSAVLAASSPLGIGVLGVAFAFGLTVLTMAFAIGHISGCHLNPAVSFGLVVGGRFPAKELLPYVIAQVIGAILAAGVIYLIASGKAGFELSAGLASNGYADHSPGGYTLGAGFVSEVVMTAMFLVVIMGATDARAPAGFAPIAIGLALTLIHLISIPVTNTSVNPARSTGPALFVGGWALQQLWLFWVAPLIGAAIGGALYRGLAKEP` ?
[reply] failed

[ask] Likewise for `MSIIAFLSYVIMTSITPGPSNILMMNEAQRFGFTGSWRFSSGILAGFAVLGILSGAFTISLYNWIPVVEPYFKLAGACYLIYLALQVGFTKNKKQDSTEARSSFISGFIFQLINIKSILFFLTVMSAFVLPFNHSLKSTIYYLALAIVLGWLALLLWSGFGSVFKRVFAKHDRVFRVLMCLLLMYSAVSIFR` ?
[reply] failed

[ask] Same thing, different sequence: `MTRVQANMLLLLAAAIWGGGFVAQSSAMSSIGPFWFVGLRFAIAAIAVLPFALMETRSLKSPPRRREIGSFILVGLALFGGATTQQVGLLTTTVTNSSFLTGLYVIFVPVIAVVLYRRHPHWVVWPCALMMLGGIFLLSGGAFETLTTGDILSIICAFFWAIQITLAGRFVSESGRPLALSFTQFAVCSLLSCMIGVVFEPISMAAIEASMMEILYVGLVSSGLAFVLQVIGQRYTTAPQAAIFLSSEALFGALMASIFLKETISSAGYVGCLIIFVAILIVELVPELTRKRQKTVAEAS`
[reply] failed

[ask] Please give the result for `MTPDDFDRFWPTFQAIVQARETYAFDPALSFEQARQLWLELPLHTLLAEEDGELLGSYYLKPNAAGPGAHVGNCGYMVCEQARGRGVARLMCEHSQKLARQEGFLALQFNSVVASNEVAVALWHKLGFETVGRLPKAYRHARLGLVDCLVMYKWLAD` too.
[reply] failed
